System: SUM190PT
assay_procedure: GRmax, 72 h; higher = less effect
reported_metric: GRmax, 72 h

Cc1cc(Nc2ncc(Cl)c(Nc3ccccc3S(=O)(=O)C(C)C)n2)c(OC(C)C)cc1C1CCNCC1 [Ceritinib/LDK378] (max 10 µM): -0.375 GR
CCNC(=O)c1noc(-c2cc(C(C)C)c(O)cc2O)c1-c1ccc(CN2CCOCC2)cc1 [Luminespib/NVP-AUY922] (max 1 µM): -0.433 GR
Cc1nc(Nc2ncc(C(=O)Nc3c(C)cccc3Cl)s2)cc(N2CCN(CCO)CC2)n1 [Dasatinib] (max 10 µM): 0.423 GR
CN1CCN(C(=O)c2ccc3cc(CCNc4ncnc5ccc(C#N)cc45)ccc3c2)CC1 [senexin b] (max 10 µM): 0.248 GR

* * *

System: HCC1395
assay_procedure: GRmax, 72 h; higher = less effect
The threshold is inclusive: GRmax, 72 h of exactly 0.09 GR counts as class 1; values below receive class 0.

CC[C@@H]1C(=O)N(C)c2cnc(Nc3ccc(C(=O)N[C@H]4CC[C@H](N5CCN(CC6CC6)CC5)CC4)cc3OC)nc2N1C(C)C [Volasertib/BI6727] (max 1 µM): class 0
Cc1nn(C)c(COc2ccc(N3CCN(S(=O)(=O)N(C)C)CC3)cc2)c1-c1cccc2c(CCCOc3cccc4ccccc34)c(C(=O)O)n(CCN3CCOCC3)c12 (max 10 µM): class 1
CCc1cncnc1N1CCN(Cc2nc3ccc(C(F)(F)F)cc3[nH]2)CC1 (max 10 µM): class 1
CCOc1cc2ncc(C#N)c(Nc3ccc(OCc4ccccn4)c(Cl)c3)c2cc1NC(=O)/C=C/CN(C)C [Neratinib/HKI272] (max 3.162 µM): class 0
CNC(=O)c1cccc(-c2ccc3c(N4CCOC[C@@H]4C)nc(N4CCOC[C@@H]4C)nc3n2)c1 [AZD2014] (max 10 µM): class 1
O=C(c1cc(Cc2n[nH]c(=O)c3ccccc23)ccc1F)N1CCN(C(=O)C2CC2)CC1 [Olaparib/AZD2281] (max 10 µM): class 1
Cc1cc(C(C)Nc2ccccc2)c2nc(N3CCOCC3)cc(=O)n2c1 (centres undefined) [TGX221] (max 10 µM): class 1
CC(=O)O[C@H]1C(=O)[C@@]2(C)[C@H]([C@H](OC(=O)c3ccccc3)[C@]3(O)C[C@H](OC(=O)[C@H](O)[C@@H](NC(=O)c4ccccc4)c4ccccc4)C(C)=C1C3(C)C)[C@]1(OC(C)=O)CO[C@@H]1C[C@@H]2O [Paclitaxel] (max 1 µM): class 0
CC(=O)Nc1cccc(-n2c(=O)n(C3CC3)c(=O)c3c(Nc4ccc(I)cc4F)n(C)c(=O)c(C)c32)c1 (max 1 µM): class 1

* * *

System: MDAMB157
assay_procedure: GRmax, 72 h; higher = less effect
// reported GRmax, 72 h for each item listed
reported_metric: GRmax, 72 h (GR)

CCNC(=O)c1noc(-c2cc(C(C)C)c(O)cc2O)c1-c1ccc(CN2CCOCC2)cc1 [Luminespib/NVP-AUY922] (max 1 µM): -0.049
CC(C)NC[C@@H](C(=O)N1CCN(c2ncnc3c2[C@H](C)C[C@H]3O)CC1)c1ccc(Cl)cc1 [Ipatasertib/GDC0068] (max 10 µM): 0.596
CS(=O)(=O)N1CCN(Cc2cc3nc(-c4cccc5[nH]ncc45)nc(N4CCOCC4)c3s2)CC1 [Pictilisib/GDC0941] (max 10 µM): 0.187

* * *

Test system: PDXHCI002
assay_procedure: GRmax, 72 h; higher = less effect
reported_metric: GRmax, 72 h (GR)

CC(C)NC[C@@H](C(=O)N1CCN(c2ncnc3c2[C@H](C)C[C@H]3O)CC1)c1ccc(Cl)cc1 [Ipatasertib/GDC0068] (max 10 µM): 1.1
CC(C)n1nc(-c2ccc3oc(N)nc3c2)c2c(N)ncnc21 [INK128/MLN0128] (max 3.162 µM): 0.229
CCOc1cc2ncc(C#N)c(Nc3ccc(OCc4ccccn4)c(Cl)c3)c2cc1NC(=O)/C=C/CN(C)C [Neratinib/HKI272] (max 3.162 µM): -0.161
CNc1nc(-c2ccc3c(N)n[nH]c3c2)cc(N2C[C@@H](C(=O)NC3CCCCC3)CC[C@H]2C)n1 (max 10 µM): 0.867

* * *

System: MDAMB330
assay_procedure: GRmax, 72 h; higher = less effect
// reported GRmax, 72 h for each item listed
reported_metric: GRmax, 72 h

CC(C)Nc1cc(-c2c[nH]c(C(=O)N[C@H](CO)c3cccc(Cl)c3)c2)c(Cl)cn1 [BVD523] (max 10 µM): 0.356 GR
C[C@@H]1COCCN1c1cc(C2([S@](C)(=N)=O)CC2)nc(-c2cc[nH]c3nccc2-3)n1 [AZD6738] (max 10 µM): 0.12 GR
Cc1nc(-c2cn3c(n2)-c2ccc(-c4cnn(C(C)(C)C(N)=O)c4)cc2OCC3)n(C(C)C)n1 [Taselisib/GDC0032] (max 10 µM): -0.924 GR

* * *

Tested on: HCC1143
assay_procedure: area over the GR curve, 72 h; higher = more effect;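 further: Dye Drop or Deep Dye Drop imaging of viable cells in 384-well plates (Hoechst nuclei, LIVE/DEAD dye), nine half-log doses, GR normalized to DMSO controls and time-zero plates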
Classes are defined on area over the GR curve with ranges label 0 (below 0.3 GR), label 1 (0.3 GR to below 0.5 GR), label 2 (0.5 GR or more)

CCOc1cc2ncc(C#N)c(Nc3ccc(OCc4ccccn4)c(Cl)c3)c2cc1NC(=O)/C=C/CN(C)C [Neratinib/HKI272] (max 3.162 µM): label 0
COc1cccc2c1C(=O)c1c(O)c3c(c(O)c1C2=O)C[C@@](O)(C(=O)CO)C[C@@H]3O[C@H]1C[C@H](N)[C@H](O)[C@H](C)O1 [Doxorubicin] (max 3.162 µM): label 2
CCN1CCN(Cc2ccc(Nc3ncc(F)c(-c4cc(F)c5nc(C)n(C(C)C)c5c4)n3)nc2)CC1 (max 10 µM): label 2
C=CCn1c(=O)c2cnc(Nc3ccc(N4CCN(C)CC4)cc3)nc2n1-c1cccc(C(C)(C)O)n1 [AZD1775] (max 10 µM): label 1
Cc1nc(-c2cn3c(n2)-c2ccc(-c4cnn(C(C)(C)C(N)=O)c4)cc2OCC3)n(C(C)C)n1 [Taselisib/GDC0032] (max 10 µM): label 1
CN1CCN(CCOc2cc(OC3CCOCC3)c3c(Nc4c(Cl)ccc5c4OCO5)ncnc3c2)CC1 [Saracatinib/AZD0530] (max 10 µM): label 0
CC[C@@]1(O)C(=O)OCc2c1cc1n(c2=O)Cc2cc3c(CN(C)C)c(O)ccc3nc2-1 [Topotecan] (max 10 µM): label 2
CNc1nc(-c2ccc3c(N)n[nH]c3c2)cc(N2C[C@@H](C(=O)NC3CCCCC3)CC[C@H]2C)n1 (max 10 µM): label 0
CC(C)n1nc(-c2ccc3oc(N)nc3c2)c2c(N)ncnc21 [INK128/MLN0128] (max 3.162 µM): label 1
CNC(=O)c1cccc(-c2ccc3c(N4CCOC[C@@H]4C)nc(N4CCOC[C@@H]4C)nc3n2)c1 [AZD2014] (max 10 µM): label 1

* * *

// reported GRmax, 72 h for each item listed
System: HCC70
assay_procedure: GRmax, 72 h; higher = less effect;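 further: breast cell lines in 384-well plates, nine doses across a 10^4 range, Dye Drop imaging of viable cells vs DMSO and time-zero plates, GR 0 means no net growth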
reported_metric: GRmax, 72 h

C=CCn1c(=O)c2cnc(Nc3ccc(N4CCN(C)CC4)cc3)nc2n1-c1cccc(C(C)(C)O)n1 [AZD1775] (max 10 µM): -0.75 GR
CN1CCN(C(=O)c2ccc3cc(CCNc4ncnc5ccc(C#N)cc45)ccc3c2)CC1 [senexin b] (max 10 µM): 0.458 GR
CN1CC[C@H](c2c(O)cc(O)c3c(=O)cc(-c4ccccc4Cl)oc23)[C@H](O)C1 [Flavopiridol] (max 1 µM): -0.811 GR
CC1(N)CCN(c2cnc(-c3cccc(Cl)c3Cl)c(N)n2)CC1 [SHP099] (max 10 µM): 0.708 GR
CCCCOc1c(C(=O)c2c(F)cc(C)cc2F)c[nH]c2nncc1-2 (max 10 µM): -0.164 GR
CC(=O)Nc1cccc(-n2c(=O)n(C3CC3)c(=O)c3c(Nc4ccc(I)cc4F)n(C)c(=O)c(C)c32)c1 (max 1 µM): -0.0393 GR
CCN1CCN(Cc2ccc(Nc3ncc(F)c(-c4cc(F)c5nc(C)n(C(C)C)c5c4)n3)nc2)CC1 (max 10 µM): -0.826 GR
CCNC(=O)c1noc(-c2cc(C(C)C)c(O)cc2O)c1-c1ccc(CN2CCOCC2)cc1 [Luminespib/NVP-AUY922] (max 1 µM): -0.583 GR
COc1cc2c(Oc3ccc4[nH]c(C)cc4c3F)ncnc2cc1OCCCN1CCCC1 [Cediranib/AZD2171] (max 10 µM): -0.326 GR
O=C(c1cc(Cc2n[nH]c(=O)c3ccccc23)ccc1F)N1CCN(C(=O)C2CC2)CC1 [Olaparib/AZD2281] (max 10 µM): 0.719 GR
Cc1cc(C(C)Nc2ccccc2)c2nc(N3CCOCC3)cc(=O)n2c1 (stereo not drawn) [TGX221] (max 10 µM): 0.0049 GR
CN1CCN(CCOc2cc(OC3CCOCC3)c3c(Nc4c(Cl)ccc5c4OCO5)ncnc3c2)CC1 [Saracatinib/AZD0530] (max 10 µM): -0.172 GR
CC(C)NC[C@@H](C(=O)N1CCN(c2ncnc3c2[C@H](C)C[C@H]3O)CC1)c1ccc(Cl)cc1 [Ipatasertib/GDC0068] (max 10 µM): -0.262 GR
